Origin of the recorded values: ChEMBL document CHEMBL4130346

System: Calf thymus DNA
experiment: Binding affinity to calf thymus DNA assessed as change in melting temperature at 0.5 compound to ds-polynucleotide ratio by spectrophotometric method
Format: nucleic-acid assay
recorded_conditions: Bos taurus
property: ΔTm (°C)
Numbers only here, please. The scale is °C.

Example entries and their recorded answers appear below.
CC(C)NC(=N)c1ccc(Oc2ccnc3cc(Cl)ccc23)cc1.Cl.Cl.Cl | 2.28
Cl.Cl.Clc1ccc2c(Oc3ccc(-c4nc5ccc(C6=NCCCN6)cc5[nH]4)cc3)ccnc2c1 | 3.89
N#Cc1ccc2nc(-c3ccc(OCCNc4ccnc5cc(Cl)ccc45)cc3)[nH]c2c1 | 2.6
Cl.Cl.N=C(NC1CCCC1)c1ccc2nc(-c3ccc(Oc4ccnc5cc(Cl)ccc45)cc3)[nH]c2c1 | 3.07
CC(C)NC(=N)c1ccc2nc(-c3ccc(OCCNc4ccnc5cc(Cl)ccc45)cc3)[nH]c2c1.Cl.Cl.Cl | 9.83
CC(C)CNC(=N)c1ccc2nc(-c3ccc(Oc4ccnc5cc(Cl)ccc45)cc3)[nH]c2c1.Cl.Cl.Cl | 2.08
Cl.Cl.Clc1ccc2c(Oc3ccc(C4=NCCCN4)cc3)ccnc2c1 | 1.96
Cl.Cl.Clc1ccc2c(Oc3ccc(C4=NCCN4)cc3)ccnc2c1 | 2.73

Task item: Query ΔTm for Cl.Cl.Clc1ccc2c(Oc3ccc(-c4nc5ccc(C6=NCCN6)cc5[nH]4)cc3)ccnc2c1
Reply: 4.08

Task item: Tell me measured ΔTm for Cl.Cl.Cl.N=C(NC1CCCC1)c1ccc2nc(-c3ccc(OCCNc4ccnc5cc(Cl)ccc45)cc3)[nH]c2c1 please.
Reply: 7.8

Task item: Indicate the recorded ΔTm value for this compound: Cl.Cl.Cl.Clc1ccc2c(NCCOc3ccc(-c4nc5ccc(C6=NCCCN6)cc5[nH]4)cc3)ccnc2c1
Reply: 10.8

Task item: Hello, please tell me recorded ΔTm for this one: CC(C)NC(=N)c1ccc2nc(-c3ccc(Oc4ccnc5cc(Cl)ccc45)cc3)[nH]c2c1.Cl.Cl.Cl
Reply: 2.24

Task item: Could you please provide reported ΔTm for CC(C)CNC(=N)c1ccc(Oc2ccnc3cc(Cl)ccc23)cc1.Cl.Cl.Cl ? Thanks!
Reply: 1.85

Task item: Using the record for Cl.Cl.Cl.N=C(N)c1ccc2nc(-c3ccc(OCCNc4ccnc5cc(Cl)ccc45)cc3)[nH]c2c1 , state its measured ΔTm.
Reply: 8.4

Task item: Specify ΔTm for Cl.Cl.Cl.N=C(NC1CCCC1)c1ccc(Oc2ccnc3cc(Cl)ccc23)cc1 and stop.
Reply: 1.51

Task item: # return recorded ΔTm for input Cl.Cl.N=C(N)c1ccc(Oc2ccnc3cc(Cl)ccc23)cc1
Reply: 2.07

Task item: // Input: Cl.Cl.Cl.N=C(N)c1ccc2nc(-c3ccc(Oc4ccnc5cc(Cl)ccc45)cc3)[nH]c2c1 . Output its ΔTm only.
Reply: 2.9

Task item: Answer with the recorded ΔTm of CC(C)CNC(=N)c1ccc2nc(-c3ccc(OCCNc4ccnc5cc(Cl)ccc45)cc3)[nH]c2c1.Cl.Cl.Cl only.
Reply: 8.67
